- Assay Text: Water solubility
- Format: physicochemical
Measurement Name: solubility

> print(dat)
                                smiles.data  measurement.name      result
1  CCC(=O)OCc1c([C@@](O)(CC)C(=O)NCCN(C)C)cc2n(c1=O)Cc1c-2nc2cc(Cl)c(Cl)cc2c1CC        solubility  > 64 mg/mL
2  CCc1c2c(nc3cc(F)ccc13)-c1cc([C@@](O)(CC)C(=O)NCCN(C)C)c(COC(=O)CCSC)c(=O)n1C2        solubility  > 62 mg/mL
3  CCCC(=O)OCc1c([C@@](O)(CC)C(=O)NCCN(C)C)cc2n(c1=O)Cc1c-2nc2ccc(O)cc2c1CC        solubility  > 58 mg/mL
4  CCc1c2c(nc3cc(F)c(F)cc13)-c1cc([C@@](O)(CC)C(=O)NCCN(C)C)c(COC(=O)c3ccc(OC)cc3)c(=O)n1C2        solubility     6 mg/mL
5  CCc1c2c(nc3ccc(Br)cc13)-c1cc([C@@](O)(CC)C(=O)NCCN(C)C)c(COC(=O)CCSC)c(=O)n1C2        solubility    25 mg/mL
6  CC=CC(=O)OCc1c([C@@](O)(CC)C(=O)NCCN(C)C)cc2n(c1=O)Cc1c-2nc2ccc(O)cc2c1CC        solubility  > 59 mg/mL
